experimental target: UniProt:O14842
test name: Agonist activity at human FFA1 receptor expressed in CHO cells assessed as intracellular calcium influx at 100 nM measured for 90 sec by Fluo-4-AM dye based FLIPR assay relative to control
Assay type: functional, cell-based
# Activity listing for each entry below
Respond with the bare value in %.

For orientation, consider the following solved cases.
{"molecule": "O=C(O)COc1ccc(OCc2cn(-c3ccccc3Cl)nn2)cc1F", "unit name": "%", "Activity": 11.3}
{"molecule": "O=C(O)COc1ccc(OCc2cn(-c3c(Cl)cccc3Cl)nn2)cc1F", "unit name": "%", "Activity": 29.7}
{"molecule": "O=C(O)COc1ccc(OCc2cn(-c3ccc(F)cc3)nn2)cc1", "unit name": "%", "Activity": 13.8}
{"molecule": "Cc1ccc(Cl)cc1-n1cc(COc2ccc3c(c2)OCC3CC(=O)O)nn1 (stereo unspecified)", "unit name": "%", "Activity": 33.8}
{"molecule": "O=C(O)CC1COc2cc(OCc3cn(-c4c(Cl)cccc4Cl)nn3)ccc21 (stereo unspecified)", "unit name": "%", "Activity": 21.7}

Next item in the queue.
Entry under review: O=C(O)CC1COc2cc(OCc3cn(-c4ccccc4)nn3)ccc21 (stereo unspecified) . Reported Activity?
0.76

###

experimental target: Free fatty acid receptor 1 (Homo sapiens) (UniProt O14842)
Sequence (O14842 whole entry): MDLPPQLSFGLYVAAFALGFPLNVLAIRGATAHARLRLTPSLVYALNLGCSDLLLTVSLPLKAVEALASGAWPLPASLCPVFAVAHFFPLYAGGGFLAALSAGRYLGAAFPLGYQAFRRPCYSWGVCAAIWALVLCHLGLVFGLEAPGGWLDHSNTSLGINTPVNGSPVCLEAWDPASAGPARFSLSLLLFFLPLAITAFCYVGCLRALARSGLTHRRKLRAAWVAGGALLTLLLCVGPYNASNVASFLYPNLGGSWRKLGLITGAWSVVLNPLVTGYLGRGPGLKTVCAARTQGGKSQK
test name: Agonist activity at human FFA1 receptor expressed in CHO cells assessed as intracellular calcium influx at 100 nM measured for 90 sec by Fluo-4-AM dye based FLIPR assay relative to control
Assay type: functional, cell-based
Note to self: values exactly at 9% are class 1. So Activity at or above 9% is class 1, below is class 0.

{"compound": "O=C(O)CC1COc2cc(OCc3cn(-c4cccc(Cl)c4)nn3)ccc21 (stereo not drawn)", "experimental target": "Free fatty acid receptor 1 (Homo sapiens) (UniProt O14842)", "discrete label": "class 1"}
{"compound": "Cc1ccc(Cl)cc1-n1cc(COc2ccc(OCC(=O)O)c(F)c2)nn1", "experimental target": "Free fatty acid receptor 1 (Homo sapiens) (UniProt O14842)", "discrete label": "class 1"}
{"compound": "O=C(O)CC1COc2cc(OCc3cn(-c4ccccc4Cl)nn3)ccc21 (stereo not drawn)", "experimental target": "Free fatty acid receptor 1 (Homo sapiens) (UniProt O14842)", "discrete label": "class 1"}

Check if Activity >= 9% (inclusive). Item: O=C(O)COc1ccc(OCc2cn(-c3ccc(F)cc3)nn2)cc1F
class 1

###

experimental target: Free fatty acid receptor 1 (Homo sapiens)
test name: Agonist activity at human FFA1 receptor expressed in CHO cells assessed as intracellular calcium influx at 100 nM measured for 90 sec by Fluo-4-AM dye based FLIPR assay relative to control
Type: functional, cell-based
measured endpoint: Activity (%)
The figure you give is taken to be in %; do not add the unit.

Reference set (3 entries):
{"compound": "COc1cccc(-n2cc(COc3ccc4c(c3)OCC4CC(=O)O)nn2)c1 (stereo unspecified)", "experimental target": "Free fatty acid receptor 1 (Homo sapiens)", "Activity / %": 19.4}
{"compound": "Cc1cccc(-n2cc(COc3ccc(OCC(=O)O)cc3)nn2)c1", "experimental target": "Free fatty acid receptor 1 (Homo sapiens)", "Activity / %": 11.8}
{"compound": "O=C(O)COc1ccc(OCc2cn(-c3ccc(Cl)cc3)nn2)cc1F", "experimental target": "Free fatty acid receptor 1 (Homo sapiens)", "Activity / %": 26.1}

Which Activity value is on record for O=C(O)COc1ccc(OCc2cn(-c3ccccc3)nn2)cc1 ?
0.64

Also need COc1cccc(-n2cc(COc3ccc(OCC(=O)O)c(F)c3)nn2)c1 , thanks.
24.4

Proceed to O=C(O)CC1COc2cc(OCc3cn(-c4ccc(Cl)cc4)nn3)ccc21 (stereo unspecified)
24.7

Proceed to CCOc1ccc(-n2cc(COc3ccc(OCC(=O)O)c(F)c3)nn2)cc1
7.62

Repeat with O=C(O)COc1ccc(OCc2cn(-c3ccc(Cl)cc3)nn2)cc1
19.4

Also check O=C(O)COc1ccc(OCc2cn(-c3cccc(Cl)c3)nn2)cc1F
22.7

Same lookup for O=C(O)CC1COc2cc(OCc3cn(-c4ccccc4F)nn3)ccc21 (stereo unspecified) , please.
6.69

Now try O=C(O)CC1COc2cc(OCc3cn(-c4ccc(OCc5ccccc5)cc4)nn3)ccc21 (stereo unspecified) .
3.67

###

test name: 1-octanol-phosphate buffer distribution coefficient, log D of compound at 100 uM at pH 7.4 after 24 hrs by HPLC based shake flask method
Type: physicochemical
measured endpoint: logD at 24 h, 100 µM
Respond numerically, and do not add a unit to the figure.

{"molecule": "Cc1ccc(Cl)cc1-n1cc(COc2ccc(OCC(=O)O)c(F)c2)nn1", "logD at 24 h, 100 µM": 1.95}

// logD at 24 h, 100 µM lookup, key: O=C(O)COc1ccc(OCc2cn(-c3c(Cl)cccc3Cl)nn2)cc1F
2.16

Consider next the molecule O=C(O)CC1COc2cc(OCc3cn(-c4cccc(Cl)c4)nn3)ccc21 (stereo not given) in the same way.
1.09

O=C(O)COc1ccc(OCc2cn(-c3ccc(F)cc3)nn2)cc1F , same question.
0.92

Field entry: Cc1ccc(Cl)cc1-n1cc(COc2ccc3c(c2)OCC3CC(=O)O)nn1 (stereo not given)
2.08

Param item: O=C(O)COc1ccc(OCc2cn(-c3ccccc3)nn2)cc1F
-0.23

###

experimental target: Free fatty acid receptor 1 (Homo sapiens) (UniProt O14842)
test name: Agonist activity at human FFA1 receptor expressed in CHO cells assessed as intracellular calcium influx at 100 nM measured for 90 sec by Fluo-4-AM dye based FLIPR assay relative to control
Type: functional, cell-based
Listed next: entries and their corresponding Activity.
Answer in %, number only, no unit symbol.

Example entries begin here.
{"compound structure": "COc1ccccc1-n1cc(COc2ccc(OCC(=O)O)c(F)c2)nn1", "experimental target": "Free fatty acid receptor 1 (Homo sapiens) (UniProt O14842)", "Activity / %": 14.6}
{"compound structure": "CC(C)(C)c1ccc(-n2cc(COc3ccc(OCC(=O)O)c(F)c3)nn2)cc1", "experimental target": "Free fatty acid receptor 1 (Homo sapiens) (UniProt O14842)", "Activity / %": 4.53}
{"compound structure": "Cc1ccc(-n2cc(COc3ccc(OCC(=O)O)cc3)nn2)cc1", "experimental target": "Free fatty acid receptor 1 (Homo sapiens) (UniProt O14842)", "Activity / %": 16.4}

Now for another entry.
Look up Activity: O=C(O)COc1ccc(OCc2cn(-c3ccccc3)nn2)cc1F
5.83

###

test name: 1-octanol-phosphate buffer distribution coefficient, log D of compound at 100 uM at pH 7.4 after 24 hrs by HPLC based shake flask method
Assay type: physicochemical
measured endpoint: logD at 24 h, 100 µM

Worked examples, 3 molecules total:
{"molecule": "Cc1ccc(-n2cc(COc3ccc(OCC(=O)O)cc3)nn2)cc1", "logD at 24 h, 100 µM": 0.89}
{"molecule": "O=C(O)COc1ccc(OCc2cn(-c3ccc(Cl)cc3)nn2)cc1F", "logD at 24 h, 100 µM": 1.37}
{"molecule": "O=C(O)CC1COc2cc(OCc3cn(-c4c(Cl)cccc4Cl)nn3)ccc21 (centres undefined)", "logD at 24 h, 100 µM": 1.96}

Here's the next entry for you.
Name the reported logD at 24 h, 100 µM value associated with the molecule COc1cccc(-n2cc(COc3ccc(OCC(=O)O)c(F)c3)nn2)c1
0.52

Taken from ChEMBL document CHEMBL4428117.
